Kindly supply the reported pIC50 values for the records listed here.
# System tested: Tyrosine-protein kinase ZAP-70 (Homo sapiens, UniProt P43403)
# Sequence (P43403 whole entry): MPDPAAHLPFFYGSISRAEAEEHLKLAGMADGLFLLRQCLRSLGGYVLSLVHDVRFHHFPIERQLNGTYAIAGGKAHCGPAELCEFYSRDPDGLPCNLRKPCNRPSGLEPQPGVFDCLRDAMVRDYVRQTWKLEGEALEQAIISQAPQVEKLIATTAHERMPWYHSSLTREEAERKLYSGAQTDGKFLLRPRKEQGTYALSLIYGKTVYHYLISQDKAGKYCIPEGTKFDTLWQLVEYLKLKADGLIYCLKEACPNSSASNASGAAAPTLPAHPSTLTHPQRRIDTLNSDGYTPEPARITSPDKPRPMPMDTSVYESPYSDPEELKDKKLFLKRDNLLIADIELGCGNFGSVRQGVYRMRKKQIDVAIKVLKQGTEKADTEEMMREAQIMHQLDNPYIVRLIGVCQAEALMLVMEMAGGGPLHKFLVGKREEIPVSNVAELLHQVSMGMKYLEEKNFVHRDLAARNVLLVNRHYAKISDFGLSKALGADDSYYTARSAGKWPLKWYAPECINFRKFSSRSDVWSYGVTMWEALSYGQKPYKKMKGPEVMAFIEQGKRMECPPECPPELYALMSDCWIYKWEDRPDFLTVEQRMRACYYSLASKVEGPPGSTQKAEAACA
# Assay procedure: Inhibition of full-length recombinant human His-tagged cytoplasmic ZAP70 expressed in baculovirus expression system by Z'-LYTE assay
pIC50: −log10 of the molar value.

Briefly, pIC50 measured for `O=C(NCC(F)(F)F)c1cc(-c2cnn3cc(-c4ccc(OCCN5CCCCC5)cc4)cnc23)cs1` : < 4.00

Short answer for `Cn1cc(-c2cnc3c(-c4csc(C(=O)NCC(F)(F)F)c4)cnn3c2)cn1` : pIC50 was < 4.00

pIC50 reported for this compound `Cc1sc(C(=O)N[C@@H]2[C@H](N)CCCC2(F)F)cc1-c1cnn2cc(Cl)cnc12` : < 4.00

Sure, the documented pIC50 for Cn1cc(-c2cnc3c(-c4csc(C(=O)N[C@@H]5CCCC[C@@H]5N)c4)cnn3c2)cn1 (racemic) is < 5.00

====

Please respond with reported pIC50 for every item in the list.
# System tested: Misshapen-like kinase 1 (Homo sapiens)
# Sequence (Q8N4C8 whole entry, the tested form may be a part): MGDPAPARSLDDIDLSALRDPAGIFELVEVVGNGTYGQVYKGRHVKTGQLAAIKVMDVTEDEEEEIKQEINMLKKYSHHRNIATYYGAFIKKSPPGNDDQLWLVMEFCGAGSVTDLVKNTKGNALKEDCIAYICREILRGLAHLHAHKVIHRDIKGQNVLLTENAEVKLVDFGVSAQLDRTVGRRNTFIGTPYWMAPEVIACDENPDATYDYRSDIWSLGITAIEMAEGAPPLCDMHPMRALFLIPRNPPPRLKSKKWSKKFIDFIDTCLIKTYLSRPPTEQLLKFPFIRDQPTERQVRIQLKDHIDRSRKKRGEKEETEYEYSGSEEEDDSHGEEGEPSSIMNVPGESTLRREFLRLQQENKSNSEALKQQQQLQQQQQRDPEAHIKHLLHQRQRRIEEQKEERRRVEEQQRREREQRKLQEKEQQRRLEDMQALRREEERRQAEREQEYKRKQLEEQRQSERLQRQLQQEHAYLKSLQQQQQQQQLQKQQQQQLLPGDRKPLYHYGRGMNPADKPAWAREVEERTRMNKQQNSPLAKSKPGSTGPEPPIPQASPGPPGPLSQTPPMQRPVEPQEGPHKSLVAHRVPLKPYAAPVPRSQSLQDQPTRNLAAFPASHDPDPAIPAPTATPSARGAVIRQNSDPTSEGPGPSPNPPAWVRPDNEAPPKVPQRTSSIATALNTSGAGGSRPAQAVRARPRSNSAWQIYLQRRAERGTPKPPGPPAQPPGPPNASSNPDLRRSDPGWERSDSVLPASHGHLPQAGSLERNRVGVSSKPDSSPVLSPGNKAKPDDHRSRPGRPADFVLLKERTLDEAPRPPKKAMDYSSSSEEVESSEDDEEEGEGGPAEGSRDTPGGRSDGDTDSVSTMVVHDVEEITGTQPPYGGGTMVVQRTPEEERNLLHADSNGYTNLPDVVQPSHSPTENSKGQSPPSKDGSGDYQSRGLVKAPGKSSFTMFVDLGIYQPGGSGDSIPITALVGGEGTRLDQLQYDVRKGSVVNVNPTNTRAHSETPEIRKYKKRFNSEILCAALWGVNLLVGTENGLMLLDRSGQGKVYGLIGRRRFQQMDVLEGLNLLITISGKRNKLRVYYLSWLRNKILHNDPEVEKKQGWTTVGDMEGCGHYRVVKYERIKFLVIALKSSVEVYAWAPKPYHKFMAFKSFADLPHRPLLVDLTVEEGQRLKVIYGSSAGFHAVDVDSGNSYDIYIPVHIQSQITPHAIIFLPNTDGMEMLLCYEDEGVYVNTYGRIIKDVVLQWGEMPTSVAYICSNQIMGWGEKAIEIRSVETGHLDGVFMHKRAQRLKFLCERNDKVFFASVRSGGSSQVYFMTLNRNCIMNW
# Assay procedure: Inhibition of recombinant human His-tagged MINK1 catalytic domain expressed in baculovirus expression system by Z'-LYTE assay
Please express pIC50 as -log10 of the molar concentration.

The measured pIC50 associated with Cn1cc(-c2cnc3c(-c4csc(C(=O)N[C@@H]5CCCC[C@@H]5N)c4)cnn3c2)cn1 (racemic) reads 8.22

Field pIC50 (entry `Cc1sc(C(=O)N[C@@H]2[C@H](N)CCCC2(F)F)cc1-c1cnn2cc(Cl)cnc12` ) reads 6.85

Value of measured pIC50 for the entry `O=C(NCC(F)(F)F)c1cc(-c2cnn3cc(-c4ccc(OCCN5CCCCC5)cc4)cnc23)cs1` : 7.89

Record `Cn1cc(-c2cnc3c(-c4csc(C(=O)NCC(F)(F)F)c4)cnn3c2)cn1` . Reported pIC50: 7.66

====

# System tested: MAP kinase-activated protein kinase 2 (Homo sapiens)
# Sequence (P49137 whole entry): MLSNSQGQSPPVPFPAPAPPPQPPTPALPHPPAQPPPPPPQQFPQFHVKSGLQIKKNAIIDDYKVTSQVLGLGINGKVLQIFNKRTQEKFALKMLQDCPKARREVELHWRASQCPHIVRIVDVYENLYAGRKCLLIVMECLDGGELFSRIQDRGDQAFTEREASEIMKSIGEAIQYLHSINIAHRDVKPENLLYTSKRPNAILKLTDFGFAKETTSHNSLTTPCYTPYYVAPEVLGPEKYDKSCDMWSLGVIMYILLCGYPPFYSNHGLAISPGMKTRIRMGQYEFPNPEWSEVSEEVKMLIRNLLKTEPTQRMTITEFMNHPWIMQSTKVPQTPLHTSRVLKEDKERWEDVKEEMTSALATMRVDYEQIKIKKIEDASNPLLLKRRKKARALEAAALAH
# Assay procedure: Inhibition of full-length recombinant human His-tagged MAPKAPK2 expressed in Escherichia coli by Z'-LYTE assay
So I've got a bunch of molecules here, and I need their pIC50 values.
Field pIC50 (float): negative decimal logarithm of the concentration in molar.

Param item: `Cc1sc(C(=O)N[C@@H]2[C@H](N)CCCC2(F)F)cc1-c1cnn2cc(Cl)cnc12` ; param system: MAP kinase-activated protein kinase 2 (Homo sapiens); output pIC50: 5.11

Reading of pIC50 for Cn1cc(-c2cnc3c(-c4csc(C(=O)N[C@@H]5CCCC[C@@H]5N)c4)cnn3c2)cn1 (racemic) with MAP kinase-activated protein kinase 2 (Homo sapiens): 6.41

Tested system MAP kinase-activated protein kinase 2 (Homo sapiens); pIC50 recorded for `O=C(NCC(F)(F)F)c1cc(-c2cnn3cc(-c4ccc(OCCN5CCCCC5)cc4)cnc23)cs1` was 4.26

====

Can you tell me pIC50 for the items I'm about to list?
Hey, just a heads up that pIC50 is the negative log base 10 of the concentration in molar.

Value (pIC50, Tyrosine-protein kinase HCK (Homo sapiens, UniProt P08631)) for record `Cn1cc(-c2cnc3c(-c4csc(C(=O)NCC(F)(F)F)c4)cnn3c2)cn1` = 7.48

Let me check: Cn1cc(-c2cnc3c(-c4csc(C(=O)N[C@@H]5CCCC[C@@H]5N)c4)cnn3c2)cn1 (racemic) , system Tyrosine-protein kinase HCK (Homo sapiens, UniProt P08631), measured pIC50 is 8.55

// compound `Cc1sc(C(=O)N[C@@H]2[C@H](N)CCCC2(F)F)cc1-c1cnn2cc(Cl)cnc12` , assay Tyrosine-protein kinase HCK (Homo sapiens, UniProt P08631), pIC50 value: 5.19

Record `O=C(NCC(F)(F)F)c1cc(-c2cnn3cc(-c4ccc(OCCN5CCCCC5)cc4)cnc23)cs1` ; system Tyrosine-protein kinase HCK (Homo sapiens, UniProt P08631); pIC50 = 7.52

====

Would you mind telling me the reported IC50 of each entry?
# System tested: UniProtKB P29597
# Sequence (P29597 whole entry, the tested form may be a part): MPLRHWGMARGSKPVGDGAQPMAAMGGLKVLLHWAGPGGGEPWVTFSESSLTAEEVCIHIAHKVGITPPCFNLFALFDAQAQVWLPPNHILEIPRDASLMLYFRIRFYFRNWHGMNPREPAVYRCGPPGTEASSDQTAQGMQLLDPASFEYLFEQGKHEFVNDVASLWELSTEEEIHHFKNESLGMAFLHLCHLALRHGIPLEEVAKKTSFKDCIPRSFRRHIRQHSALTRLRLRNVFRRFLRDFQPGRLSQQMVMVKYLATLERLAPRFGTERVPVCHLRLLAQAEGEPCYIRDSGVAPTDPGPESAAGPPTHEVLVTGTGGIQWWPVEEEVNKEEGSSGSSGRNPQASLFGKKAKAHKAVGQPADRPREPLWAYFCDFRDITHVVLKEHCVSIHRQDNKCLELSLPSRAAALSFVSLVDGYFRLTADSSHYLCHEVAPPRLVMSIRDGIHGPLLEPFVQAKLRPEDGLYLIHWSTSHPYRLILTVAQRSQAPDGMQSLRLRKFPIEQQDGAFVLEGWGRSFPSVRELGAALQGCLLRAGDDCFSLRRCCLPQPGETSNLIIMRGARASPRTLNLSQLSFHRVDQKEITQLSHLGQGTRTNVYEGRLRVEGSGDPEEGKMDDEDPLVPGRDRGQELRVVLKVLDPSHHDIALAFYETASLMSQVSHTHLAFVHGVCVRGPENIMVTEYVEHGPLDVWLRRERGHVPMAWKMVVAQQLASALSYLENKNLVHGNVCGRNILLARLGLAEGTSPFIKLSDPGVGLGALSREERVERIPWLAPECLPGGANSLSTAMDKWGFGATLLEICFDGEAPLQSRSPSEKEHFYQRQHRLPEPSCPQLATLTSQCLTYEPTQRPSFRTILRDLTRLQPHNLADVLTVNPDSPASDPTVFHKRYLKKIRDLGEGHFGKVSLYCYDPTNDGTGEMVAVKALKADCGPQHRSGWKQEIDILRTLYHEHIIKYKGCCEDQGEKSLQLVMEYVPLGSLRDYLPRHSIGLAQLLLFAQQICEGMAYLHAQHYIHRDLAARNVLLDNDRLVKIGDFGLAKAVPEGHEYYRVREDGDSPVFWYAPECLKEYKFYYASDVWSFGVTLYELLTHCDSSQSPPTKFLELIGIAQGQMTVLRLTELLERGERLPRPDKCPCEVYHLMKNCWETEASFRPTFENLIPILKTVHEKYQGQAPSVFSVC
# Assay procedure: Inhibition of recombinant human N-terminal GST-tagged cytoplasmic TYK2 (833 to 1187 residues) catalytic domain expressed in baculovirus expression system by Z'-LYTE assay
Form entry: value (nM) — number only.

IC50 for `Cn1cc(-c2cnc3c(-c4csc(C(=O)NCC(F)(F)F)c4)cnn3c2)cn1` is 92

The reported value for Cn1cc(-c2cnc3c(-c4csc(C(=O)N[C@@H]5CCCC[C@@H]5N)c4)cnn3c2)cn1 (racemic) in terms of IC50 is 52

Consider `O=C(NCC(F)(F)F)c1cc(-c2cnn3cc(-c4ccc(OCCN5CCCCC5)cc4)cnc23)cs1` . Its measured IC50 is 75

// sample `Cc1sc(C(=O)N[C@@H]2[C@H](N)CCCC2(F)F)cc1-c1cnn2cc(Cl)cnc12` , its IC50 was 10000

====

For each record, write down the corresponding IC50.
# System tested: Rho-associated protein kinase 1 (Homo sapiens, UniProt Q13464)
# Sequence (Q13464 whole entry, the tested form may be a part): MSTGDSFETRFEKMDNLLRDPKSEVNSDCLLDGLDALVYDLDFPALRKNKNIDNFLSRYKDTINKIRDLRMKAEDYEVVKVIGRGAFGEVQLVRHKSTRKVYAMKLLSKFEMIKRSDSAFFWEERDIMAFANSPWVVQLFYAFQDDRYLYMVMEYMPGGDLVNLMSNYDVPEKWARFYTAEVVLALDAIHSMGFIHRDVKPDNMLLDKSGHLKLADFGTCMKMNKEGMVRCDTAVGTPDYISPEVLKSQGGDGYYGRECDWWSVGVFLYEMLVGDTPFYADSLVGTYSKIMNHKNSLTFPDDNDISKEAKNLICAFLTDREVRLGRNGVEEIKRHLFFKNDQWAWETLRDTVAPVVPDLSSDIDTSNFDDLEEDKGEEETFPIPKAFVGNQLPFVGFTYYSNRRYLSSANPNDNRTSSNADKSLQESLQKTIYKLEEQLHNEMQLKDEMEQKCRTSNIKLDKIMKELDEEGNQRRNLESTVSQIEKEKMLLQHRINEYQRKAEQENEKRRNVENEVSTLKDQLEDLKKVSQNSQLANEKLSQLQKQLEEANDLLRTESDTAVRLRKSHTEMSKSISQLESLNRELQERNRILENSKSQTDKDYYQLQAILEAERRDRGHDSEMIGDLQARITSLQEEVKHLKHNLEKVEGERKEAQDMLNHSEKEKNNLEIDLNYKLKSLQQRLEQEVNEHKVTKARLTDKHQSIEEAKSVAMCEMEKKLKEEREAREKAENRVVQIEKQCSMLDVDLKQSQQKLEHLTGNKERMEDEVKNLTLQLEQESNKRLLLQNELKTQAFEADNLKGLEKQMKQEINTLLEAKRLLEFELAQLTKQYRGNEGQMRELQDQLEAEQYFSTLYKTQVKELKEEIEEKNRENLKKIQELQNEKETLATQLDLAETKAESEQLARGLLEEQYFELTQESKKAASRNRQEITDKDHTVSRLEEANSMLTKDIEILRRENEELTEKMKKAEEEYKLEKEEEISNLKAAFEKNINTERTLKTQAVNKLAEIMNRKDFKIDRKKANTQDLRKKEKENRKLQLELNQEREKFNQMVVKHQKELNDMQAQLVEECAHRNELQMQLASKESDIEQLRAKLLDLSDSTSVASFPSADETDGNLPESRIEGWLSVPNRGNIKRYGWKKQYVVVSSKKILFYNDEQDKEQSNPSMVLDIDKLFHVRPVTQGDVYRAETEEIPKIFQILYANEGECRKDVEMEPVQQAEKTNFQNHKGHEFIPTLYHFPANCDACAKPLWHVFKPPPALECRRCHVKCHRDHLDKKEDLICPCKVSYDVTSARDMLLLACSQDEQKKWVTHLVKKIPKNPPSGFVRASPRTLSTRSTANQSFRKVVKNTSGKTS
# Assay procedure: Inhibition of recombinant human GST-tagged ROCK1 catalytic domain expressed in baculovirus expression system by Z'-LYTE assay
Give the quantity in nM, number only.

# lookup: `Cn1cc(-c2cnc3c(-c4csc(C(=O)NCC(F)(F)F)c4)cnn3c2)cn1` on Rho-associated protein kinase 1 (Homo sapiens, UniProt Q13464), IC50 = 780

Form: item `Cc1sc(C(=O)N[C@@H]2[C@H](N)CCCC2(F)F)cc1-c1cnn2cc(Cl)cnc12` ; test system Rho-associated protein kinase 1 (Homo sapiens, UniProt Q13464); IC50: 2300

Hey, Rho-associated protein kinase 1 (Homo sapiens, UniProt Q13464) data for `O=C(NCC(F)(F)F)c1cc(-c2cnn3cc(-c4ccc(OCCN5CCCCC5)cc4)cnc23)cs1` : IC50 came out at 360

// assay Rho-associated protein kinase 1 (Homo sapiens, UniProt Q13464), entry Cn1cc(-c2cnc3c(-c4csc(C(=O)N[C@@H]5CCCC[C@@H]5N)c4)cnn3c2)cn1 (racemic) , IC50 value = 17

====

# Assay procedure: Solubility of the compound at pH 2
# Assay type: physicochemical
# Settings: buffer
Measured parameter: solubility (µM)
Record the value in µM, omitting the unit from your answer.

What the record says about `Cc1sc(C(=O)N[C@@H]2[C@H](N)CCCC2(F)F)cc1-c1cnn2cc(Cl)cnc12` : solubility is 206

====

# System tested: Serine/threonine-protein kinase TAO2 (Homo sapiens, UniProt Q9UL54)
# Sequence (Q9UL54 whole entry): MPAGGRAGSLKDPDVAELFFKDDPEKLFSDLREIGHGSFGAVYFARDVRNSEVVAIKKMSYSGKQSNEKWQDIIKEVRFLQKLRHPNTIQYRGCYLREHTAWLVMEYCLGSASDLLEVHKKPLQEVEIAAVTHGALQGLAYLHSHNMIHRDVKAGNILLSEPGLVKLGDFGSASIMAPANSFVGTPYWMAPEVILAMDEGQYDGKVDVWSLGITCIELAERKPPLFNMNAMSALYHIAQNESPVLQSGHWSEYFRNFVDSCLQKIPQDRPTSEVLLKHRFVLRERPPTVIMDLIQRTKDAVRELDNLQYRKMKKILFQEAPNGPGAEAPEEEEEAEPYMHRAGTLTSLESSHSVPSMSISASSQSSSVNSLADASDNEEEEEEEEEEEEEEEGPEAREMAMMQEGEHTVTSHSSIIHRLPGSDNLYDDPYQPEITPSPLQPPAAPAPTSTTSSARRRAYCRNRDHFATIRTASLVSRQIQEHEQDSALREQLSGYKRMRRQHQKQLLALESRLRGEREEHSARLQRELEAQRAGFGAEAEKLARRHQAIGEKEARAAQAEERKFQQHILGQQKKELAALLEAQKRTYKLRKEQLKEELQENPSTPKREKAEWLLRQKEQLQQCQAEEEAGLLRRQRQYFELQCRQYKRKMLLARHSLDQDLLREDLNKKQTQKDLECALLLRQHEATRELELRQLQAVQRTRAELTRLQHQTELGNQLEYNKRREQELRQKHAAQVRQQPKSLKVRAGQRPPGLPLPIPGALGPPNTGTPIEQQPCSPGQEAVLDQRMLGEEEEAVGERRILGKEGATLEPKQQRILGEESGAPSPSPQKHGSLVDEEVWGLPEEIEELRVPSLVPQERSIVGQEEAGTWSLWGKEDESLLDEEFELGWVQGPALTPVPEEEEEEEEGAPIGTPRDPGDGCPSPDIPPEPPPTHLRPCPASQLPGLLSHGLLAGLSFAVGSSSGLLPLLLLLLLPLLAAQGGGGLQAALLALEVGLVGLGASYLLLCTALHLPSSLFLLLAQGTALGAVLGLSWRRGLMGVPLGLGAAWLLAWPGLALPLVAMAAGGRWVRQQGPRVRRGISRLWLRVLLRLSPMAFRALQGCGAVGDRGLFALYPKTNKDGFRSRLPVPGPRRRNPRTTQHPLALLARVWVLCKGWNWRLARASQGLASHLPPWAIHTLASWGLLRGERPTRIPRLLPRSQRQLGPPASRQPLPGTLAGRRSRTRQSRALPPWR
# Assay procedure: Inhibition of recombinant human GST-tagged TAOK2 catalytic domain expressed in baculovirus expression system by Z'-LYTE assay
Would you mind telling me the reported IC50 of each entry?

Hey, Serine/threonine-protein kinase TAO2 (Homo sapiens, UniProt Q9UL54) data for `O=C(NCC(F)(F)F)c1cc(-c2cnn3cc(-c4ccc(OCCN5CCCCC5)cc4)cnc23)cs1` : IC50 came out at 2.7 µM

GET /values?item= `Cn1cc(-c2cnc3c(-c4csc(C(=O)NCC(F)(F)F)c4)cnn3c2)cn1` &system= Serine/threonine-protein kinase TAO2 (Homo sapiens, UniProt Q9UL54) returns IC50: 25 µM

IC50 value, target or system Serine/threonine-protein kinase TAO2 (Homo sapiens, UniProt Q9UL54), for Cn1cc(-c2cnc3c(-c4csc(C(=O)N[C@@H]5CCCC[C@@H]5N)c4)cnn3c2)cn1 (racemic) : 0.42 µM

Record for `Cc1sc(C(=O)N[C@@H]2[C@H](N)CCCC2(F)F)cc1-c1cnn2cc(Cl)cnc12` under target or system Serine/threonine-protein kinase TAO2 (Homo sapiens, UniProt Q9UL54): IC50 reported as 11 µM
